- System: L1210
- test_name: In vitro inhibition of cell growth (Cytostatic activity) of mouse leukemia L1210 cells (ATCC CCL 219)
- Type: functional, cell-based
endpoint_name: pIC50
Entry type: numeric. Quantity: pIC50, the -log10 of concentration in molar units.

Guide cases for pIC50, answers given:
Record request: pIC50 value, item CCOc1ccc(-c2ncnc3c2ncn3C2O[C@H](CO)[C@@H](O)[C@H]2O)cc1 (stereo partly specified)
5.60

Thanks! And `OC[C@H]1O[C@@H](n2cnc3c(-c4ccccc4)ncnc32)[C@H](O)[C@@H]1O` ?
5.05

Thanks! And COc1ccc(-c2ncnc3c2ncn3C2O[C@H](CO)[C@@H](O)[C@H]2O)cc1 (stereo partly specified) ?
5.82

Thanks! And `COc1ccc(-c2ncnc3c2ncn3[C@@H]2O[C@H](COC(C)=O)[C@@H](OC(C)=O)[C@H]2OC(C)=O)cc1` ?
4.77

---
Record request: pIC50 value, item OC[C@H]1OC(n2cnc3c(-c4ccc(F)c(F)c4)ncnc32)[C@H](O)[C@@H]1O (stereo partly specified)
4.70

Thanks! And OC[C@H]1OC(n2cnc3c(-c4ccc(F)cc4)ncnc32)[C@H](O)[C@@H]1O (stereo partly specified) ?
5.35

====

- Tested on: L1210
- test_name: In vitro inhibition of cell growth (Cytostatic activity) of mouse leukemia L1210 cells (ATCC CCL 219); inhibition @ 10 uM/L
- Format: functional
endpoint_name: Inhibition

Record request: Inhibition value, item `CC(=O)OC[C@H]1O[C@@H](n2cnc3c(-c4ccc(F)cc4)ncnc32)[C@H](OC(C)=O)[C@@H]1OC(C)=O`
<20%

---
Record request: Inhibition value, item `CCOc1ccc(-c2ncnc3c2ncn3[C@@H]2O[C@H](COC(C)=O)[C@@H](OC(C)=O)[C@H]2OC(C)=O)cc1`
<20%

Thanks! And `CC(=O)OC[C@H]1O[C@@H](n2cnc3c(-c4ccc(F)cc4F)ncnc32)[C@H](OC(C)=O)[C@@H]1OC(C)=O` ?
<20%

Thanks! And `CC(=O)OC[C@H]1O[C@@H](n2cnc3c(-c4ccccc4C)ncnc32)[C@H](OC(C)=O)[C@@H]1OC(C)=O` ?
<20%

Thanks! And `CC(=O)OC[C@H]1O[C@@H](n2cnc3c(-c4ccccc4)ncnc32)[C@H](OC(C)=O)[C@@H]1OC(C)=O` ?
<20%

Thanks! And Cc1ccccc1-c1ncnc2c1ncn2C1O[C@H](CO)[C@@H](O)[C@H]1O (stereo partly specified) ?
<20%
